# system-under-test: human GLP-1R (Homo sapiens, UniProt P43220, G168S)
# Sequence (P43220 24-463 G168S limits assumed): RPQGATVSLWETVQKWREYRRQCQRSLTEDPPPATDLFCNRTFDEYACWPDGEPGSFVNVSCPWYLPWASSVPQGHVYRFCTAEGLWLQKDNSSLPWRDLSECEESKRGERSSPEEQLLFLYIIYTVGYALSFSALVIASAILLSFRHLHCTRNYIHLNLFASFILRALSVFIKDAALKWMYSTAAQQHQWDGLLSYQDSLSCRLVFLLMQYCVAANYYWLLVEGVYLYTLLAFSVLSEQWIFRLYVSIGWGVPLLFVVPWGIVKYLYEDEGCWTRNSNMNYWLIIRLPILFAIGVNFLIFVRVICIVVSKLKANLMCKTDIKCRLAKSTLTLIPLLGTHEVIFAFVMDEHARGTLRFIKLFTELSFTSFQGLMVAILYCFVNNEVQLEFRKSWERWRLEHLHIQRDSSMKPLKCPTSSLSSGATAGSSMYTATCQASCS
# experiment-description: CHO GLP-1R Clone H6—Assay 1: HTRF cAMP cell-based functional agonist assay (high GLP-1R density)
# condition-notes: read-out: Assay 1 Emax (%), CHO GLP-1R Clone H6; relative to saturating concentration of full agonist GLP-1 (1 μM); arithmetic mean
Quick rule for you: Emax under 80% gets true, anything else gets false.

Example entries begin here.
{"columns": ["compound", "label-class"],
 "data": [
  ["CCN1CCC[C@@H]1Cn1c(CN2CCC(c3cccc(OCc4ccc(Cl)cc4F)n3)CC2)nc2ccc(C(=O)O)cc21 [Example 11A-54]", "true"],
  ["CN1CCCC(Cn2c(CN3CCC(c4cccc(OCc5ccc(Cl)cc5F)n4)CC3)nc3ccc(C(=O)O)cc32)C1 (stereo not shown) [Example 11A-04]", "false"],
  ["O=C(O)c1ccc2nc(CN3CCC(c4cccc(OCc5ccc(Cl)cc5F)n4)CC3)n(CCn3cncn3)c2c1 [Example 11A-17]", "true"]
]}

Lab note: next compound to report on.
[Q] Lab log: compare recorded Emax with 80%; is it strictly lower for COCCn1c(CN2CC[C@@H](c3cccc(OCc4ccc(Cl)cc4F)n3)[C@H](O)C2)nc2ccc(C(=O)O)cc21 (racemic) ?
[A] false
